B1: Pistol ribozyme (parent)
chain: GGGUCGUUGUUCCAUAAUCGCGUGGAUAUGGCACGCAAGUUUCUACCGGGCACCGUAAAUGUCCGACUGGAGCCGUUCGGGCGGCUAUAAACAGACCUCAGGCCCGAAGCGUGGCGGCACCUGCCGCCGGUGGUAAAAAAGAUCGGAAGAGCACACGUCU

Variants of: B1
Assay: aptazyme ON/OFF ratio, guanine; higher = stronger switching; co-transcriptional cleavage with and without guanine
readoutName: aptazyme ON/OFF ratio
// keep it numeric: no unit symbol after the value

Record excerpt, results attached:
In [3]: df
Out[3]:
                         mutations  resultvalue
0           U7C U8G U10A C12U C13G         1.13
1  U7G U8G G9A U10G U11A C12G C13G         1.18
2            U7C U8C G9C U10G U11G         1.09
3       U7C U8G G9A U10G U11A C12G         1.24
4       U7A U8C G9C U10A C12A C13G         1.08
5          U8C U10A U11A C12G C13A         1.15
6  U7G U8C G9C U10A U11C C12A C13G         1.19
7                 U7C U8A G9C U10G         1.97
8  U7G U8G G9A U10G U11G C12G C13U         1.11
9      U8C G9A U10A U11G C12G C13G         1.17

aptazyme ON/OFF ratio in this record for U7A G9C U10G U11A C12A : 1.1

aptazyme ON/OFF ratio in this record for U7A U8A G9C U11C C12G C13A : 1.06

aptazyme ON/OFF ratio in this record for U7G U8G G9U U10C U11C C12G C13U : 1.33

aptazyme ON/OFF ratio in this record for G9A U10G U11G C13A : 1.2

aptazyme ON/OFF ratio in this record for U7A G9A U10G U11G C12G : 1.38
